Data origin, for the record: patent US20080207683A1

target: Human CatS (Homo sapiens, UniProt P25774); construct: made in house; host or cells: Sf9 insect cells (baculovirus vector pFB+HT); assay: CatS inhibition of hydrolysis of fluorescent substrate Z-Val-Val-Arg-AFC; format: biochemical; conditions: apparent Ki, Morrison equation fit of initial rates; 10 μM Z-Val-Val-Arg-AFC, pH 5.0, 1.5 nM CatS; read-out: CatS Ki^app
Sequence (P25774 115-331): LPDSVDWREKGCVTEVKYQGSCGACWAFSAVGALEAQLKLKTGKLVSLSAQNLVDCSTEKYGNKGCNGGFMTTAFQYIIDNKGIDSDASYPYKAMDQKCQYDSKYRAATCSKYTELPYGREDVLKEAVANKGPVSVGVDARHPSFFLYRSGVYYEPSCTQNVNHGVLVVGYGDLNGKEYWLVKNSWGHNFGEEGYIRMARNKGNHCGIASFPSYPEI
Reported pKi is given for each of the following compounds.
FYI, pKi means -log10 of a concentration in mol per litre.

• COc1ccc(CNC(=O)c2cccc(-c3cc(-c4nn(CCCN5CCCC5)c5c4CN(C(C)=O)CC5)ccc3Cl)c2)cc1 = 6.37

GET /values?readout=pKi&system=Human CatS (Homo sapiens, UniProt P25774)&item= CC(=O)N1CCc2c(c(-c3ccc(Cl)c(-c4cccc(C(=O)NCc5nc6ccccc6s5)c4)c3)nn2CCCN2CCCC2)C1
6.64

GET /values?readout=pKi&system=Human CatS (Homo sapiens, UniProt P25774)&item= CC(C)(C)c1csc(CNC(=O)c2cccc(-c3cc(-c4nn(CCCN5CCCC5)c5c4CN(S(C)(=O)=O)CC5)ccc3Cl)c2)n1
7.12

GET /values?readout=pKi&system=Human CatS (Homo sapiens, UniProt P25774)&item= CC(NC(=O)c1cccc(-c2cc(-c3nn(CCCN4CCCC4)c4c3CN(S(C)(=O)=O)CC4)ccc2Cl)c1)c1nc2ccccc2[nH]1 (stereo not drawn)
7.65

GET /values?readout=pKi&system=Human CatS (Homo sapiens, UniProt P25774)&item= CN(C)S(=O)(=O)c1cccc2c1N(CCNC(=O)c1cccc(-c3cc(-c4nn(CCCN5CCC(O)C5)c5c4CNCC5)ccc3Cl)c1)CC2 (stereo not drawn)
6.65

GET /values?readout=pKi&system=Human CatS (Homo sapiens, UniProt P25774)&item= CS(=O)(=O)N1CCc2c(c(-c3ccc(Cl)c(-c4cccc(C(=O)NCc5nc6cc(F)ccc6s5)c4)c3)nn2CCCN2CCCC2)C1
6.93
